Molecular target: GLUT1 (Homo sapiens)
Assay: Indirect measurement of GLUT1 activity by quantification of intracellular ATP levels (glucose induced ATP increase)
Format: cell-based
Parameters: endogenous in cells; host or cells: DLD1 or CHO-K1
Conditions: read-out: IC50 regarding glucose induced ATP increase (GLUT1 inhibition)
# label = True if IC50 < 20 nM else False

Some entries whose results are on file:
Cc1nn(Cc2ccc(F)cc2)c(C(=O)N(C)C)c1NC(=O)c1cc(C(F)(F)F)nc2ccc(Br)cc12
False
Cc1nn(Cc2c(F)cccc2F)c(C)c1NC(=O)c1cc(C(N)=O)nc2ccccc12
True
Cc1c(NC(=O)c2cc(C(N)=O)nc3ccccc23)c(C(F)(F)F)nn1Cc1c(F)cc(C#N)cc1F
True
COc1cccc(Cn2nc(C)c(NC(=O)c3cc(C(N)=O)nc4ccc(Br)cc34)c2C)c1
True
Cc1nn(Cc2ccccc2F)c(C)c1NC(=O)c1cc(C(F)(F)F)nc2ccc(Br)cc12
False

Q: State whether 20 nM exceeds IC50 recorded for `Cc1c(NC(=O)c2cc(C(N)=O)nc3cc(F)c(Cl)cc23)c(C(F)(F)F)nn1Cc1ncco1` .
Ans: False

Q: Is IC50 of `COc1ccc(Cn2nc(C)c(NC(=O)c3cc(C(N)=O)nc4ccccc34)c2C)cc1F` strictly below 20 nM?
Ans: True

Q: Confirm or reject: IC50 of `Cc1nn(Cc2ccc(C(=O)NC(CO)CO)cn2)c(C)c1NC(=O)c1cc(C(F)(F)F)nc2ccc(Br)cc12` lies strictly below 20 nM
Ans: False

* * *

Target: GLUT1 (Homo sapiens)
Sequence (P11166 1-492): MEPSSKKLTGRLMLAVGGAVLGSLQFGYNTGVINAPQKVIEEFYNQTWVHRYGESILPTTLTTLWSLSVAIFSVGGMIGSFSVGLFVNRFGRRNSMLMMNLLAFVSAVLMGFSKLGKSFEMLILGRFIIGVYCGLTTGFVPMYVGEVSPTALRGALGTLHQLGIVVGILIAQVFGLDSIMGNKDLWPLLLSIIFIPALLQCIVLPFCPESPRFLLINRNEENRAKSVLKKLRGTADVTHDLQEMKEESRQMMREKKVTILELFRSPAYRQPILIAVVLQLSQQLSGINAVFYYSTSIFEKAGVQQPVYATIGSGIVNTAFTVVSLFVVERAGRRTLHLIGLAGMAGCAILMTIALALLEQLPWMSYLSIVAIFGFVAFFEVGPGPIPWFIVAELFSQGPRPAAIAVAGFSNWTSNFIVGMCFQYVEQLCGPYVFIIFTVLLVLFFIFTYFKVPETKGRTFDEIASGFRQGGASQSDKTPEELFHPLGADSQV
Assay: Indirect measurement of GLUT1 activity by quantification of intracellular ATP levels (glucose induced ATP increase)
Assay type: cell-based
Set-up: endogenous in cells; host or cells: DLD1 or CHO-K1
Conditions: read-out: IC50 regarding glucose induced ATP increase (GLUT1 inhibition)
measuredAttribute: IC50
Field note: include the unit after the figure.

Cc1c(NC(=O)c2cc(C(N)=O)nc3ccccc23)c(C(F)(F)F)nn1Cc1ncccc1C#N [Example 1393]
15 nM
COc1ccc(Cn2nc(C)c(NC(=O)c3cc(C(N)=O)nc4cc(F)c(F)cc34)c2C)cc1 [Example 226]
4 nM
Cc1nn(Cc2ccc(C(=O)N3CCCC(O)C3)cc2)c(C)c1NC(=O)c1cc(C(F)(F)F)nc2ccc(Br)cc12 (racemic) [Example 1162]
164 nM
Cc1nn(C(C)c2ccc(C#N)cc2)c(C)c1NC(=O)c1cc(C(N)=O)nc2c(F)cccc12 (racemic) [Example 331]
2.5 nM
Cc1cc(Cn2nc(C(F)(F)F)c(NC(=O)c3cc(C(N)=O)nc4cc(F)c(Cl)cc34)c2C)on1 [Example 420]
4.9 nM

Q: Item under review: COc1cc(C#N)ccc1Cn1nc(C(F)(F)F)c(NC(=O)c2cc(C(N)=O)nc3cc(F)ccc23)c1C [Example 1646] . Reported IC50?
Ans: 2.3 nM

Q: State the recorded IC50 for this entry: Cc1nn(Cc2ccc(C#N)cc2)c(C)c1NC(=O)c1cc(C(N)=O)nc2c(F)cccc12 [Example 263]
Ans: 3.9 nM
